# EXPERIMENT: AUC (0 to t) in C57BL/6 mouse at 10 mg/kg, po
# Type: ADME, organism-based
# Parameters: dose 10 mg/kg, route oral
# CONDITION_DESCRIPTION: plasma
RECORDED_ENDPOINT: AUC(0-t) (ng·h/mL)
Kindly answer with a numeric value in ng·h/mL, unit omitted.

[Q] Sample O=C1c2cc(OC[C@H](O)CO)ccc2COc2cc(Nc3ccc(F)cc3F)ccc21 — what was its AUC(0-t)?
[A] 6590

----------
# TARGET: Mitogen-activated protein kinase 14 (Homo sapiens, UniProt Q16539)
# Sequence (Q16539 whole entry): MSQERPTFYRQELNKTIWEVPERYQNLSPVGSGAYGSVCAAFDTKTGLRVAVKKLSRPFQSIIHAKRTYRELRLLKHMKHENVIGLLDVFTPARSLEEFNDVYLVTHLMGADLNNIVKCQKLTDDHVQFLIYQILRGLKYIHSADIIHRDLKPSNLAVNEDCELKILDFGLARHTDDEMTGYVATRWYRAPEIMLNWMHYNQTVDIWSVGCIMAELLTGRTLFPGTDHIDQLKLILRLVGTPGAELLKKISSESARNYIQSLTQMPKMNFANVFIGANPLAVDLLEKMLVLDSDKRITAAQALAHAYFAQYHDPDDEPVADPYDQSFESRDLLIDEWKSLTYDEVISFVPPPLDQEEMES
# EXPERIMENT: Competitive inhibition of p38alpha MAP kinase (unknown origin) in presence of 100 uM ATP
RECORDED_ENDPOINT: IC50 (nM)
Supply the numeric figure in nM, leaving out any unit text.

Check out these entries, answers already filled in.
STRUCTURE_AS_SMILES	IC50, nM
O=C(Nc1cccc(Nc2ccc3c(c2)OCc2c(OCCN4CCOCC4)cccc2C3=O)c1)c1ccoc1	25
Nc1cccc(Nc2ccc3c(c2)OCc2ccc(N)cc2C3=O)c1	651
Cc1cc(F)ccc1Nc1ccc2c(c1)OCc1cc(OCCN3CCOCC3)ccc1C2=O	160
O=C1c2cc(OCCC3CCOCC3)ccc2COc2cc(Nc3ccc(F)cc3F)ccc21	79

Alright, here's another compound for you.
[Q] Return reported IC50; argument: CCN(CC)CCOc1ccc2c(c1)C(=O)c1ccc(Nc3ccc(F)cc3F)cc1OC2
[A] 101
